tested on: Staphylococcus epidermis ATCC 35984 biofilm; assay: MBEC assay (biofilm eradication, CFU log reduction); format: cell-based, S. epidermidis; conditions: 48 h grown biofilm, 20 h treatment, CFU log reduction vs untreated; read-out: S. epidermidis MBEC mM with log reduction ≥1
observation_type: minimal effective concentration

>>> df
                                   compound                 observation_type  result
0         CCCCSSCCCC [Di-n-butyl disulfide]  minimal effective concentration  > 1 mM
1  CCCS[S+]([O-])CCC (centres unmarked) [Di-n-propyl thiosulfinate, S-propyl propane-1-sulfinothioate]  minimal effective concentration    2 mM
2  Cc1ccc(SSc2ccc(C)cc2)cc1 [Di-p-tolyl disulfide]  minimal effective concentration  > 1 mM
3  c1coc(CSSCc2ccco2)c1 [Di-furfuryl disulfide]  minimal effective concentration  > 1 mM
4          CCCSSCCC [Di-n-propyl disulfide]  minimal effective concentration  > 4 mM
